# Test system: MS2 coat protein
# test_details: apparent KD of MS2 coat protein, switch ON state; designed switch direction (-1 OFF switch, 1 ON switch): -1; higher = weaker reporter binding
# test_conditions: FMN input: 0 or 200 uM; Eterna round: R93 (includes R88 designs)
property_name: apparent KD of MS2 coat protein (nM)
Numeric answer only, unit nM assumed.

### Prompt Endpoint output: apparent KD of MS2 coat protein of AGUUGGCGAGGAUAUACAUGAGGAUCACCCAUGUGAAAUCGCGAAGAAAUAGGGAAAAGUAGAAGGCGCUGACA [Ruby 61] . Value?
### Response 11.6

### Prompt Entry AAAAAACAUGAGGAUCACCCAUGUAAGGAUAUGCUAAAAAACACGGAAAAACGUGAUAGCAGAAGGUACAAAAA [66%, Wbt, 31] : reported apparent KD of MS2 coat protein = ?
### Response 22.6

### Prompt Please look up its apparent KD of MS2 coat protein: AGGAUGUCAGGAUAUGUGUAAAGAAUAAAACAAAUAACAACACAGAAGGGACAUGAGGAUCACCCAUGUUAAGA [May 44]
### Response 36.8

### Prompt What does the data say about its apparent KD of MS2 coat protein? Entry: AAGAAACAUGAGGAUCACCCAUGUCAGGAUAUGCAGGACUGACGAAAGUCAGUCCAAAGCAGAAGGGACUAGAA [8-pair stack]
### Response 29.9

### Prompt # input sequence: AAGAAGUCAGGAUAUACAUGAGGAUCACCCAUGUAAAAGAAAGAAAGGGAAAAGAAAAGUAGAAGGGACAAGAA [Usermaatre-akhenamun Ramesses VIII] ; wanted: its apparent KD of MS2 coat protein
### Response 18.2

### Prompt Name the recorded apparent KD of MS2 coat protein for AAACUACUAGGAUAUGCAGAAAGGGUGUAUCCUUAAACUCCACAUGAGGAUCACCCAUGUAGAAGGAGUAAUCG [Dilaquis] .
### Response 32.4

### Prompt Name the reported apparent KD of MS2 coat protein value associated with the sequence ACCUUACAUGAGGAUCACCCAUGUUAGGAUAUCUCGCUUUCGCAAUCACAGCGCAAGCAGAGAAGGGACACGGG [Esceari]
### Response 28.3

### Prompt Any idea what its apparent KD of MS2 coat protein is? The sequence is GAAAAGUGAGGAUAUACAUGAGGAUCACCCAUGUGUAUAAAAAAAUACACAAAAGAAAGUAGAAGGCACUAAAA [Mat - Exclusion 3 - Mayanna mod - D111]
### Response 25.8

### Prompt # lookup: apparent KD of MS2 coat protein of AAGAAGAUAGGAUAUACAAAAUAAAAGAAAAGAAAGAAAGAACAUGAGGAUCACCCAUGUAGAAGGGUCAAGAA [Kheperkare Senusret I]
### Response 54.6

### Prompt Recorded apparent KD of MS2 coat protein for AAAACGGUAGGAUAUACGAUUGGGAACUAGACCGAGAAACCACAUGAGGAUCACCCAUGUAGAAGGGCCAAAAA [Ex2 Malc#13] , please?
### Response 31.1

### Prompt # lookup: apparent KD of MS2 coat protein of AACAUGUUAGGAUAUCUAAGAAAAGAAAAGAAAGAAAAGAAAGAGAAGGAACAUGAGGAUCACCCAUGUAAGAA [EteRNA is fun!]
### Response 30.1

### Prompt Which apparent KD of MS2 coat protein value belongs to AAAAUGAAAGGAUAUACAUGAGGAUCACCCAUGUUCCAGAACAGGAGUACAAGCGAGUGUAGAAGGUUCAGCAA [Ercesois] ?
### Response 22.3

### Prompt Quick check: apparent KD of MS2 coat protein of AGAAAGACAGGAUAUACAUGAGGAUCACCCAUGUAAAAGAAAGAAAAGGGAAAGAAAAGUAGAAGGGUCAAAGA [Ruby 64] ?
### Response 22.1

Values were extracted from the supplement of paper PMC9170038.
